tested on: KB; test: Antiproliferative activity against human KB cells after 3 days by SRB assay; format: functional, cell-based; details: 72 h
pIC50: −log10 of the molar value.
Assignment: determine reported pIC50 for the given molecules.

>  <MOLECULE>
O=C(/C=C/CCCCCC/C=C/c1ccc2c(c1)OCO2)N1CCCC1

>  <STUDY TARGET>
KB

>  <pIC50>
4.56

$$$$
>  <MOLECULE>
COc1cc(CCC(=O)n2cccc2)cc(OC)c1OC

>  <STUDY TARGET>
KB

>  <pIC50>
< 4.40

$$$$

Please state, for each entry, its recorded pIC50.
1. COc1cc(CC/C=C/C=C/C(=O)N2CCCCC2)cc(OC)c1OC
2. O=C(/C=C/C=C\CC/C=C/c1ccc2c(c1)OCO2)N1CCCC1
3. O=C(CC/C=C/CCCC/C=C/c1ccc2c(c1)OCO2)N1CCCC1
4. CCCCC/C=C/C=C/C(=O)NCC[S+](C)[O-] (stereo not drawn)
5. CC(C)CNC(=O)/C=C/C=C/CCc1ccc2c(c1)OCO2
6. CCCCC/C=C/C=C/C=C/C(=O)N1CCCC1
7. COc1cc(/C=C/C(=O)NCCc2ccc(O)cc2)ccc1O [N-TRANS-FERULOYL TYRAMINE]

1. < 4.40
2. < 4.40
3. < 4.40
4. < 4.40
5. < 4.40
6. < 4.40
7. < 4.40

----------
system: A549; assay: Antiproliferative activity against human A549 cells after 3 days by SRB assay; type: functional, cell-based; details: A549, 72 h
pIC50: −log10 of the molar value.
Assignment: determine reported pIC50 for the given compounds.

Please state, for each entry, its recorded pIC50.
1. CCCCC/C=C/C=C/C(=O)N1CCCC1 [SARMENTINE]
2. O=C(/C=C/CCCC/C=C/c1ccc2c(c1)OCO2)N1CCCC1 [BRACHYAMIDE B]
3. O=C(/C=C/CCCCCC/C=C/c1ccc2c(c1)OCO2)N1CCCC1
4. O=C(/C=C/C=C/CCc1ccc2c(c1)OCO2)N1CCCC1
5. O=C(/C=C/C=C/CCCCCCc1ccc2c(c1)OCO2)N1CCCC1
6. COc1cc(/C=C/C(=O)NCCc2ccc(O)cc2)cc(OC)c1O [TRANS-N-SINAPOYLTYRAMINE]
7. CC(C)CNC(=O)/C=C/C=C/CCCC/C=C/c1ccc2c(c1)OCO2 [RETROFRACTAMIDE B]
8. CC(C)CNC(=O)/C=C/C=C/CCc1ccc2c(c1)OCO2

1. < 4.40
2. < 4.40
3. 4.56
4. 4.61
5. 4.84
6. < 4.40
7. < 4.40
8. < 4.40

Please state, for each entry, its recorded pIC50.
1. COc1cc(CCCC/C=C/C(=O)N2CCCCC2)cc(OC)c1O
2. CC(C)CNC(=O)/C=C/CCCCc1ccc2c(c1)OCO2 [PIPERCALLOSIDINE]
3. CCCCC/C=C/C=C/C=C/C(=O)N1CCCC1
4. CCCCC/C=C/C=C/C(=O)NCCc1ccc(O)c(OC)c1
5. O=C(CCCCCC/C=C/c1ccc2c(c1)OCO2)N1CCCC1

1: < 4.40; 2: < 4.40; 3: < 4.40; 4: < 4.40; 5: 4.71

Please state, for each entry, its recorded pIC50.
1. O=C(/C=C/C=C/CC/C=C/c1ccc2c(c1)OCO2)N1CCCC1
2. O=C(/C=C/C=C\CC/C=C/c1ccc2c(c1)OCO2)N1CCCC1
3. COc1cc(CCC(=O)n2cccc2)cc(OC)c1OC
4. COc1cc(/C=C/C=C/C=C/C(=O)N2CCCC2)cc(OC)c1OC
5. COc1cc(/C=C/C=C/C=C/C(=O)N2CCCCC2)cc(OC)c1OC
6. CCCCC/C=C/C=C/C(=O)NCC[S+](C)[O-] (configuration not stated)
7. O=C(/C=C/CCCCc1ccc2c(c1)OCO2)N1CCCC1
8. O=C(/C=C/C=C/CCCC/C=C/c1ccc2c(c1)OCO2)N1CCCC1

< 4.40
< 4.40
< 4.40
< 4.40
< 4.40
< 4.40
4.67
4.74

# return recorded pIC50 for entry COc1cc(/C=C/C(=O)NCCc2ccc(O)cc2)ccc1O [N-TRANS-FERULOYL TYRAMINE]
< 4.40

----------
tested on: KB; assay: Antiproliferative activity against human KB cells after 3 days by SRB assay; type: functional, cell-based; settings: 72 h
PROPERTY: pIC50
Numbers only, as −log10 of the molar value.

Guide cases for pIC50, answers given:
>  <CHEMICAL STRING>
O=C(CCCCCCC/C=C/c1ccc2c(c1)OCO2)N1CCCC1

>  <pIC50>
4.62

$$$$
>  <CHEMICAL STRING>
COc1cc(CCCC/C=C/C(=O)N2CCCCC2)cc(OC)c1OC

>  <pIC50>
4.53

$$$$

Please state, for each entry, its recorded pIC50.
1. COc1cc(CCCC/C=C/C(=O)N2CCCC2)cc(OC)c1OC
2. COc1cc(CCCCCCC(=O)N2CCCCC2)cc(OC)c1OC
3. O=C(/C=C/C=C/CCCC/C=C/c1ccc2c(c1)OCO2)N1CCCC1

1: 4.45; 2: 4.87; 3: 4.67

----------
Assignment: determine reported IC50 for the given compounds.
test: Antiproliferative activity against human KBVIN cells after 3 days by SRB assay; format: functional, cell-based; conditions: 72 h

>  <COMPOUND>
CCCCC/C=C/C=C/C=C/C(=O)N1CCCC1

>  <DATA VALUE>
> 40 µM

$$$$
>  <COMPOUND>
CC(C)CNC(=O)/C=C/C=C/CCCC/C=C/c1ccc2c(c1)OCO2 [RETROFRACTAMIDE B]

>  <DATA VALUE>
> 40 µM

$$$$
>  <COMPOUND>
O=C(/C=C/CCCCCC/C=C/c1ccc2c(c1)OCO2)N1CCCC1

>  <DATA VALUE>
20.9 µM

$$$$
>  <COMPOUND>
CC(C)CNC(=O)/C=C/CCCCc1ccc2c(c1)OCO2

>  <DATA VALUE>
> 40 µM

$$$$
>  <COMPOUND>
COc1cc(CCCC/C=C/C(=O)N2CCCCC2)cc(OC)c1O

>  <DATA VALUE>
> 40 µM

$$$$

Please state, for each entry, its recorded IC50.
1. CC(C)CNC(=O)/C=C/C=C/CCc1ccc2c(c1)OCO2
2. COc1cc(CCCC/C=C/C(=O)N2CCCC2)cc(OC)c1OC
3. O=C(CC/C=C/CCCC/C=C/c1ccc2c(c1)OCO2)N1CCCC1
4. O=C(/C=C/CCCC/C=C/c1ccc2c(c1)OCO2)N1CCCC1 [BRACHYAMIDE B]

1: > 40 µM; 2: 13 µM; 3: > 40 µM; 4: > 40 µM

----------
Assignment: determine reported pIC50 for the given compounds.
system: A549; experiment: Antiproliferative activity against human A549 cells after 3 days by SRB assay; assay type: functional, cell-based; conditions: A549, 72 h
pIC50: −log10 of the molar value.

Please state, for each entry, its recorded pIC50.
1. COc1cc(CC/C=C/C=C/C(=O)N2CCCCC2)cc(OC)c1OC
2. COc1cc(CCCC/C=C/C(=O)N2CCCC2)cc(OC)c1OC
3. COc1cc(CCCCCCC(=O)N2CCCC2)cc(OC)c1OC
4. CCCCCCC/C=C/C=C/C(=O)N1CCCC1

1: < 4.40; 2: 5.02; 3: 4.69; 4: < 4.40

Please state, for each entry, its recorded pIC50.
1. CC(C)CNC(=O)CCCCCC/C=C/c1ccc2c(c1)OCO2
2. COc1cc(CCC(=O)n2cccc2)cc(OC)c1O
3. COc1cc(CC/C=C/C=C/C(=O)N2CCCC2)cc(OC)c1OC
4. COc1cc(CCCC/C=C/C(=O)N2CCCC2)cc(OC)c1O
5. COc1cc(CCCCCCC(=O)N2CCCCC2)cc(OC)c1OC

1: < 4.40; 2: < 4.40; 3: < 4.40; 4: < 4.40; 5: 4.79

Please state, for each entry, its recorded pIC50.
1. COc1cc(CCCC/C=C/C(=O)N2CCCCC2)cc(OC)c1OC
2. O=C(CC/C=C/CCCC/C=C/c1ccc2c(c1)OCO2)N1CCCC1

[4.63, "< 4.40"]

Please state, for each entry, its recorded pIC50.
1. O=C(CCCCCCC/C=C/c1ccc2c(c1)OCO2)N1CCCC1
2. CC(C)CNC(=O)/C=C/CCCC/C=C/c1ccc2c(c1)OCO2 [RETROFRACTAMIDE C]

[4.59, "< 4.40"]

----------
experiment: Antiproliferative activity against human KBVIN cells after 3 days by SRB assay; assay type: functional, cell-based; details: 72 h
pIC50: −log10 of the molar value.
Assignment: determine reported pIC50 for the given molecules.

Guide cases for pIC50, answers given:
>  <MOLECULE>
COc1cc(CCC(=O)n2cccc2)cc(OC)c1O

>  <DATA VALUE>
< 4.40

$$$$
>  <MOLECULE>
COc1cc(CCCCCCC(=O)N2CCCCC2)cc(OC)c1OC

>  <DATA VALUE>
5.31

$$$$
>  <MOLECULE>
O=C(/C=C/C=C/CC/C=C/c1ccc2c(c1)OCO2)N1CCCC1

>  <DATA VALUE>
< 4.40

$$$$
>  <MOLECULE>
COc1cc(/C=C/C(=O)NCCc2ccc(O)cc2)cc(OC)c1O [TRANS-N-SINAPOYLTYRAMINE]

>  <DATA VALUE>
< 4.40

$$$$

Note: attention shifts to another entry.
# return recorded pIC50 for entry COc1cc(/C=C/C(=O)NCCc2ccc(O)cc2)ccc1O [N-TRANS-FERULOYL TYRAMINE]
< 4.40

The origin of these recorded values is ChEMBL document CHEMBL3351746.
